System: A549 NSCLC
Assay: NCI tumour cell line growth inhibition, 48 h; in the data active means GI50 below about 0.43 µM; inactive means the rest
Outcomes: active, inactive

INSERT INTO assay_data (compound, system_tested, class_assignment) VALUES
  ('CCCCC[C@H]1C/C=C2/C(=O)C(Cl)=C[C@@H]2C/C=C\CCCC(=O)O1', 'A549 NSCLC', 'inactive'),
  ('Cc1cn2c(/C=C3\C(=O)N(C)c4ccc(Cl)cc43)c(C)nc2s1', 'A549 NSCLC', 'inactive'),
  ('C=C1C(=O)O[C@H]2[C@H]1CC/C(COC(=O)/C=C\C(=O)NCc1ccc(Cn3c(=O)sn(-c4ccc(Cl)cc4)c3=O)cc1)=C\CC[C@@]1(C)O[C@@H]21', 'A549 NSCLC', 'inactive'),
  ('Nc1cc(N)c2nc(-c3ccccc3)c(NCc3ccc(Cl)c(Cl)c3)nc2c1', 'A549 NSCLC', 'inactive'),
  ('C=CCN1C(=O)[C@]2(SC1=S)[C@H](c1cccc(Cl)c1)CN(C)[C@]21C(=O)NC2C=CC(Cl)=C[C@H]21 (some centres undefined)', 'A549 NSCLC', 'inactive'),
  ('COc1ccc2nc3ccccc3c(NCc3ccccc3)c2c1', 'A549 NSCLC', 'inactive'),
  ('CC1(C)CN(CCNc2nccc(-c3c(-c4cccc(O)c4)nc4sccn34)n2)S(=O)(=O)N1', 'A549 NSCLC', 'inactive'),
  ('C=C1C(O)C2CC(C)(C)C(=O)C2=C(CC(C)C)C12CC2 (centres undefined)', 'A549 NSCLC', 'inactive'),
  ('CCOC(=O)c1cc2c(n1Cc1cc(OC)cc(OC)c1)-c1oncc1CC2', 'A549 NSCLC', 'active'),
  ('O=c1[nH]c2ccccc2n1C1CCN(CCOc2ccccc2)CC1', 'A549 NSCLC', 'inactive'),
  ('COc1cc(/C=C/c2ccnc3ccccc23)cc(OC)c1OC', 'A549 NSCLC', 'inactive'),
  ('COC(=O)[C@H](CCCCNC(=O)OCc1ccccc1)NC(=O)[C@@H](NC(=O)Nc1cc(C(F)(F)F)cc(C(F)(F)F)c1)C(C)C', 'A549 NSCLC', 'inactive'),
  ('C=C1C(=O)O[C@H]2[C@H]1CC/C(COC(=O)N[C@H](Cc1c[nH]c3ccccc13)C(=O)OC)=C\CC[C@@]1(C)O[C@@H]21', 'A549 NSCLC', 'inactive'),
  ('CN(C)C/C=C/C(=O)Nc1cc2c(Nc3cccc(Cl)c3F)ncnc2cc1OCCOC(F)F', 'A549 NSCLC', 'inactive');

----------
System: A549 NSCLC
Experiment: NCI tumour cell line growth inhibition, 48 h
MEASURED ATTRIBUTE: TGI

INSERT INTO results (compound, measured_attribute, observed_value) VALUES
  ('O=C(NC(CCCCN1C(=O)c2ccccc2C1=O)P(=O)(Oc1ccccc1)Oc1ccccc1)OCc1ccccc1 (stereo not drawn)', 'TGI', '> 100 µM'),
  ('c1ccc2c(c1)[nH]c1c3ccccc3sc21', 'TGI', '> 100 µM'),
  ('CCOC(=O)C1=NNC(C(=O)c2ccccc2)C1c1ccccc1 (stereo not drawn)', 'TGI', '41.2 µM'),
  ('COc1nc2c(c(=O)[nH]1)N=C(c1ccc(Cl)cc1)CC(c1ccccc1)N2 (stereo not drawn)', 'TGI', '> 100 µM'),
  ('C/C(=N/N)c1sc(-c2nc(C)c(/C(C)=N\N)s2)nc1C', 'TGI', '> 100 µM'),
  ('COC1(C)CNCC(C)(C)NC(=O)C(C)(OC)CNCC(C)(C)NC1=O (stereo not drawn)', 'TGI', '> 100 µM'),
  ('C=C1C(O)C2CC(C)(C)C(=O)C2=C(CC(C)C)C12CC2 (stereo not drawn)', 'TGI', '> 100 µM'),
  ('OCC1OC(n2cnc3c(NCc4ccco4)ncnc32)C(O)C1O (stereo not drawn)', 'TGI', '36.9 µM');
